B1: FAM189A2 (parent)
chain: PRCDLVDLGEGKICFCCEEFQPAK

- Variants of: B1
- ASSAY_DETAILS: protein stability index of a GFP-peptide fusion (GPS, HEK-293T) (PSI 1-6); higher = more stable;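 further: lentivirally expressed fusions sorted by FACS into six bins by GFP to DsRed ratio, PSI derived from sequencing read proportions per bin multiplied by bin number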
- ASSAY_SETUP: c terminus: a fixed tail appended
MEASUREMENT_TYPE: protein stability index

Requested read-out: protein stability index. Entry: PRCDLVDLGEGKICFCCREFQPAK [E18R]
2.28

Next up: PRCDLVDLGEGKMCFCCEEFQPAK [I13M]
4.02

Next up: PRCDLADLGEGKICFCCEEFQPAK [V6A]
3.49

Next up: PRCDLVDLGEGGICFCCEEFQPAK [K12G]
2.21

Next up: PRCDLVDLGEGKLCFCCEEFQPAK [I13L]
2.72

Next up: PRCDLVDLGEGTICFCCEEFQPAK [K12T]
2.63

Next up: PRCDLMDLGEGKICFCCEEFQPAK [V6M]
2.65

Next up: PRCDLVDLGEGKICNCCEEFQPAK [F15N]
4.66

Next up: PRCDLVDLGEGKIWFCCEEFQPAK [C14W]
2.51

Next up: PRRDLVDLGEGKICFCCEEFQPAK [C3R]
2.63

Next up: PRCDLVDLGEGKICFCCEEWQPAK [F20W]
2.4

Next up: PRCDLVSLGEGKICFCCEEFQPAK [D7S]
2.21
